# System: cyBCMA
# measurement_protocol: Kinetics and affinity of cyBCMA/human IgG interactions by SPR (Bio-Rad Proteon XPR36)
# Type: binding, cynomolgus
# recorded_conditions: 37° C.
The molecules listed here are annotated with their ka (1/Ms) cyBCMA @ 37° C..

- molecule: "L3.PY/L1.PS/H3.AE: anti-BCMA antibody (antibody, V domains shown) VH: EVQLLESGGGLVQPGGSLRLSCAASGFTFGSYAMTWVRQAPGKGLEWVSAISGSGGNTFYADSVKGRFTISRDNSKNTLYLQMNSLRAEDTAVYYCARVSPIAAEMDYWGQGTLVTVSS VL: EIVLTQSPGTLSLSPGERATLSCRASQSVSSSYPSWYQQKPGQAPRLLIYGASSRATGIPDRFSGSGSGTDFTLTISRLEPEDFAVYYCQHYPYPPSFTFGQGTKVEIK"
  ka (1/Ms) cyBCMA @ 37° C. [M⁻¹ s⁻¹]: "2.46e+06"
- molecule: "L3.PY/L3.KY/H2.LT: anti-BCMA antibody (antibody, V domains shown) VH: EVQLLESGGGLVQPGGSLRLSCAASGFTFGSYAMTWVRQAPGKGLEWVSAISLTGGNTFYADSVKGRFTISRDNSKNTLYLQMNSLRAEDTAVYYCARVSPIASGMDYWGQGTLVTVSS VL: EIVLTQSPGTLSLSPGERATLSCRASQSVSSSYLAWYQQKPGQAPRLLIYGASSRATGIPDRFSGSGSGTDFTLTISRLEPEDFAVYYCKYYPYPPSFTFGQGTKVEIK"
  ka (1/Ms) cyBCMA @ 37° C. [M⁻¹ s⁻¹]: "1.82e+06"
- molecule: "L3.PY/L1.AH/H3.YA: anti-BCMA antibody (antibody, V domains shown) VH: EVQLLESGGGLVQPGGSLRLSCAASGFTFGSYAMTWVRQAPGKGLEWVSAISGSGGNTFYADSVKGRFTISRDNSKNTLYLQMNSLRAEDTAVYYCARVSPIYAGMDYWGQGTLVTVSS VL: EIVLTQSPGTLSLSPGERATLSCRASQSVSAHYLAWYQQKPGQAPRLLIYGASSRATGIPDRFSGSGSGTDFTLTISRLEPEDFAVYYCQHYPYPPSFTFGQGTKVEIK"
  ka (1/Ms) cyBCMA @ 37° C. [M⁻¹ s⁻¹]: "2.37e+06"
- molecule: "L3.PY/L1.AH/H3.TAQ: anti-BCMA antibody (antibody, V domains shown) VH: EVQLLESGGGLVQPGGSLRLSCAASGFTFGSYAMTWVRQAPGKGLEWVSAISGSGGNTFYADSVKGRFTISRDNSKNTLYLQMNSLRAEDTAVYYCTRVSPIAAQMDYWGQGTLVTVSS VL: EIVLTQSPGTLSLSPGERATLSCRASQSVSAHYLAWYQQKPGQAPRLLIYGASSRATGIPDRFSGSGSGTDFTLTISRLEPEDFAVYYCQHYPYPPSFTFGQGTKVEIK"
  ka (1/Ms) cyBCMA @ 37° C. [M⁻¹ s⁻¹]: "2.28e+06"
- molecule: "L3.PY/L1.PS/H3.YA: anti-BCMA antibody (antibody, V domains shown) VH: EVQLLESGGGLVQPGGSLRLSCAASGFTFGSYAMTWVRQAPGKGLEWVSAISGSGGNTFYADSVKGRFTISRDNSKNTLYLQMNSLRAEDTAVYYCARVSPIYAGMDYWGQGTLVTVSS VL: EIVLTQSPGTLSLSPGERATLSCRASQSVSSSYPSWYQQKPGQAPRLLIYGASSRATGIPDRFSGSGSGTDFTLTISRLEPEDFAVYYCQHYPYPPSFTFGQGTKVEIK"
  ka (1/Ms) cyBCMA @ 37° C. [M⁻¹ s⁻¹]: "1.77e+06"
- molecule: "L3.PY/L1.PS/H2.QL: anti-BCMA antibody (antibody, V domains shown) VH: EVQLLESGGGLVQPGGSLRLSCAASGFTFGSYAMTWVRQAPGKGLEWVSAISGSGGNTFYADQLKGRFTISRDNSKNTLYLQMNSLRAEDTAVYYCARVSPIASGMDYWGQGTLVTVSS VL: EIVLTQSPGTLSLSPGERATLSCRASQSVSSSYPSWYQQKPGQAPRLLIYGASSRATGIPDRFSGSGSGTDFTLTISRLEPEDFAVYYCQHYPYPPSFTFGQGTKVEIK"
  ka (1/Ms) cyBCMA @ 37° C. [M⁻¹ s⁻¹]: 657000
- molecule: "L3.PY/H2.LT: anti-BCMA antibody (antibody, V domains shown) VH: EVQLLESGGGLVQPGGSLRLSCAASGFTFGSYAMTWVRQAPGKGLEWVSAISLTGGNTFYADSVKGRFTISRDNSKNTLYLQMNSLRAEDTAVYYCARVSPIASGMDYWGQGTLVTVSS VL: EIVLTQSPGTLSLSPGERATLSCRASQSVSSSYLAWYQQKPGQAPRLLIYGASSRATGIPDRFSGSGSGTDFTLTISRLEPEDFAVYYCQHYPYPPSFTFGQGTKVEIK"
  ka (1/Ms) cyBCMA @ 37° C. [M⁻¹ s⁻¹]: "2.09e+06"
- molecule: "L3.PY/L1.AH/H3.AE: anti-BCMA antibody (antibody, V domains shown) VH: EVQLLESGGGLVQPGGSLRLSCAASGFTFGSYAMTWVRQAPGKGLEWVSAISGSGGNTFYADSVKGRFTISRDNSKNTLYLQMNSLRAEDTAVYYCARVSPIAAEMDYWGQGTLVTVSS VL: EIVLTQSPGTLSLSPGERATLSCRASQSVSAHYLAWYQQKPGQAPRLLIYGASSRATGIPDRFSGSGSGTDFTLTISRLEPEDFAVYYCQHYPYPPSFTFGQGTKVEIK"
  ka (1/Ms) cyBCMA @ 37° C. [M⁻¹ s⁻¹]: "2.25e+06"
- molecule: "L3.PY/L1.FF/H3.TAQ: anti-BCMA antibody (antibody, V domains shown) VH: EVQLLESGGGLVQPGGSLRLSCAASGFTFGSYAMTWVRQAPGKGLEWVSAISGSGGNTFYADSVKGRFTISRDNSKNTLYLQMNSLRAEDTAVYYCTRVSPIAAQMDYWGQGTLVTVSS VL: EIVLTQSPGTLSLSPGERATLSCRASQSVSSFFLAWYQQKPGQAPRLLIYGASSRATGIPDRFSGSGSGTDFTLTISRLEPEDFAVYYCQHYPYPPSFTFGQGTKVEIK"
  ka (1/Ms) cyBCMA @ 37° C. [M⁻¹ s⁻¹]: "2.32e+06"

All values here come from patent US11814435B2.
